# System: U2OS
# ASSAY REMARKS: Multiplex assay against U2OS
# Format: toxicity, cell-based
# MEASUREMENT CONTEXT: human, 48 h, 1 µM, compound concentration 1 uM, replicate 1
Parameter threshold = 4%. Response is Criterion met when Population Mitochondria Different-Phenotype (%) meets or exceeds it, else Criterion not met.

Here are 5 compounds together with their reported answers.
| COMPOUND | GROUP LABEL |
| --- | --- |
| OCCCNc1cc(-c2ccnc(Nc3cccc(Cl)c3)n2)ccn1 | Criterion met |
| COc1cc(C(=O)N2CC[C@@H](O)[C@@H](N)C2)cc2nc(-c3cc4ccccc4n3CC3CC3)n(C)c12.Cl | Criterion met |
| COc1cc(OC2CCN(C(C)=O)CC2)ccc1C(=O)N1CCC(N2C(=O)OCc3ccccc32)CC1 | Criterion not met |
| C=CCN1C[C@H](C(=O)N(CCCN(C)C)C(=O)NCC)C[C@@H]2c3cccc4[nH]cc(c34)C[C@H]21 [CABERGOLINE] | Criterion not met |
| COc1cc2nc(N3CCN(C(=O)COc4c(OC)cccc4C(C)C)CC3)nc(N)c2cc1OC.Cl.Cl | Criterion met |

Ask: In plain terms: is recorded Population Mitochondria Different-Phenotype (%) at least 4% for COc1ccc2c(c1OCc1ccccc1)C[C@@H](C(=O)O)N(C(=O)C(c1ccccc1)c1ccccc1)C2 [OLODANRIGAN] ?
Result: Criterion not met

Source of measurements: ChEMBL document CHEMBL5058577
